# Target or system: DYRK1A (Rattus norvegicus, UniProt Q63470)
# Experiment notes: DYRK1A kinase assay (myelin basic protein)
# Type: biochemical
pIC50: −log10 of the molar value.
Quantity kind: pIC50

compound="Nc1nccc(-c2c3c(O)ccnc3n3c(N)nccc23)n1 [Variolin B, reference compound]" readout_value=7.10

###

pIC50 for assorted compounds
# Target or system: CK1δ/ε
# Experiment notes: CK1δ/ε kinase assay (CK1-specific peptide)
# Test conditions: 15 μM ATP, 30° C.
pIC50: −log10 of the molar value.
Quantity kind: pIC50

compound="CCOc1ccnc2[nH]cc(-c3ccnc(N)n3)c12 [Meriolin 4]" relation== readout_value=7.00
compound="Nc1nccc(-c2c[nH]c3nccc(OC4CCCCC4)c23)n1 [Meriolin 17]" relation=< readout_value=7.00
compound="Nc1nccc(-c2c[nH]c3nccc(OCC4CCCCC4)c23)n1 [Meriolin 16]" relation=< readout_value=7.00
compound="Nc1nccc(-c2c3c(O)ccnc3n3c(N)nccc23)n1 [Variolin B, reference compound]" relation== readout_value=8.30
compound="CCCC#Cc1ccnc2[nH]cc(-c3ccnc(N)n3)c12 [Meriolin 18]" relation== readout_value=5.89
compound="COc1ccnc2[nH]cc(-c3ccnc(N)n3)c12 [Meriolin 3]" relation== readout_value=6.70
compound="COc1ccnc2[nH]cc(-c3ccncn3)c12 [Meriolin 14]" relation== readout_value=6.22
compound="Nc1nccc(-c2c[nH]c3nccc(OCc4ccccc4)c23)n1 [Meriolin 15]" relation== readout_value=6.89
compound="COCCOc1ccnc2[nH]cc(-c3ccnc(N)n3)c12 [Meriolin 7]" relation== readout_value=4.00
compound="COc1ccnc2[nH]cc(-c3ccnc(SC)n3)c12 [Meriolin 12, reference compound]" relation== readout_value=6.22

###

# Target or system: CDK5/p25 (Homo sapiens, UniProt Q00535)
# Sequence (Q00535 whole entry, species assumed): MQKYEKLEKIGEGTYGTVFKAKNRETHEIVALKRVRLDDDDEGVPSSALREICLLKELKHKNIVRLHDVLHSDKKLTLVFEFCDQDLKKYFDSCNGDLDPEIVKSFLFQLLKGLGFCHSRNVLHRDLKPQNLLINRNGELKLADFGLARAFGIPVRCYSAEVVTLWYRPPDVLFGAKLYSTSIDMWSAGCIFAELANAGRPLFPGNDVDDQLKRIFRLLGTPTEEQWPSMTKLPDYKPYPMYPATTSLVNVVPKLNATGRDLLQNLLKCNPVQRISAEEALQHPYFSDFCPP
# Sequence (Q15078 99-307 partner limits assumed, species assumed): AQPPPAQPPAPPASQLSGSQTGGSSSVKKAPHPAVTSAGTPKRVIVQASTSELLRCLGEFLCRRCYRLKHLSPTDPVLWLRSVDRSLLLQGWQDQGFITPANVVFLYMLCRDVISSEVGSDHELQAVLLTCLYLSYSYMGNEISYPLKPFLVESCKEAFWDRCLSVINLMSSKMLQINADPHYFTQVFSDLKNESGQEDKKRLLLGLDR
# Experiment notes: CDK5/p25 kinase assay
# Format: biochemical, mammalian
# Test conditions: 15 μM ATP, 30° C., histone H1; read-out: IC50 CDK5/p25
Quantity kind: IC50 (nM)

entry_smiles=Nc1nccc(-c2c[nH]c3nccc(OC4CCCCC4)c23)n1 readout_value=2.1
entry_smiles=Nc1nccc(-c2c[nH]c3nccc(CCc4ccccc4)c23)n1 readout_value=130
entry_smiles=Nc1nccc(-c2c[nH]c3nccc(OCC4CCCCC4)c23)n1 readout_value=3
entry_smiles=Nc1nccc(-c2c[nH]c3nccc(-c4ccccc4)c23)n1 readout_value=7

###

log10(IC50) for assorted molecules
# Target or system: CDK1/cyclin B
# Experiment notes: CDK1/cyclin B kinase assay (histone H1, [γ-33P]-ATP)
# Test conditions: read-out: IC50 CDK1/cyclin B, 15 μM ATP, 30° C.
Quantity kind: log10(IC50) (log10 of the value in nM)

entry_smiles=Nc1nccc(-c2c[nH]c3nccc(OCC4CCCCC4)c23)n1 quantity_kind=log10(IC50) readout_value=0.34
entry_smiles=Nc1nccc(-c2c[nH]c3nccc(Cl)c23)n1 quantity_kind=log10(IC50) readout_value=2.38
entry_smiles=Nc1nccc(-c2c[nH]c3nccc(O)c23)n1 quantity_kind=log10(IC50) readout_value=1.76
entry_smiles=CCCOc1ccnc2[nH]cc(-c3ccnc(N)n3)c12 quantity_kind=log10(IC50) readout_value=0.85
entry_smiles=Cn1cc(-c2ccnc(N)n2)c2c(O)ccnc21 quantity_kind=log10(IC50) readout_value=3.08
entry_smiles=COc1ccnc2[nH]cc(-c3ccncn3)c12 quantity_kind=log10(IC50) readout_value=3.11
entry_smiles=CCCC#Cc1ccnc2[nH]cc(-c3ccnc(N)n3)c12 quantity_kind=log10(IC50) readout_value=1.04

###

# Target or system: GSK-3α/β
# Experiment notes: GSK-3α/β kinase assay (GS-1 peptide)
# Test conditions: 15 μM ATP, 30° C.
IC50 for assorted compounds
Quantity kind: IC50 (nM)

entry_smiles=CCCC#Cc1ccnc2[nH]cc(-c3ccnc(N)n3)c12 quantity_kind=IC50 unit=nM readout_value=82
entry_smiles=CCOc1ccnc2[nH]cc(-c3ccnc(N)n3)c12 quantity_kind=IC50 unit=nM readout_value=30
entry_smiles=Nc1nccc(-c2c[nH]c3nccc(-c4ccccc4)c23)n1 quantity_kind=IC50 unit=nM readout_value=80
entry_smiles=Nc1nccc(-c2c[nH]c3nccc(Cl)c23)n1 quantity_kind=IC50 unit=nM readout_value=2000
